Attribute: ddG of mutation (higher = less stable)
B1: Subtilisin-chymotrypsin inhibitor-2A, P01053 (parent)
chain: MSSVEKKPEGVNTGAGDRHNLKTEWPELVGKSVEEAKKVILQDKPEAQIIVLPVGTIVTMEYRIDRVRLFVDKLDNIAQVPRVG

# Variants of: B1
# condition info: Hordeum vulgare; pH 6.25; 25 °C; GdnHCl; Fluorescence; MES 50 mM; reversible: yes; structure 2CI2; whole UniProt chain shown
// units = kcal/mol; emit number, no label

For orientation, consider the following solved cases.
{"chain": "MSSVEKKPEGVNTGAGDRHNLKTEWPELVGKSVEEAKKVILQAKPEAQIIVLPVGTIVTMEYRIDRVRLFVDKLDNIAQVPRVG [D43A]", "ddG of mutation (higher = less stable), kcal/mol": 1.05}
{"chain": "MSSVEKKPEGVNTGAGDRHNLKTEWPELVGKSVEEAKKVILQDKPEAQIIVLPVGTIVTMAYRIDRVRLFVDKLDNIAQVPRVG [E61A]", "ddG of mutation (higher = less stable), kcal/mol": 1.12}

Consider the additional variant presented here.
I'd like to know its ddG of mutation (higher = less stable). The variant in question is MSSVEKKPEGVNTGAGDRHNLKTEWPELVGKSVEEAKKVILQDKPEAQIIVLPVGTIVTMEYAIARVRLFVDKLDNIAQVPRVG [R63A D65A]
2.46
